# assay.details: solubility of CBD in water and other aqueous solvents with Captisol (SAE-CD) and/or added polymers, surfactants, pH
# Format: physicochemical
# condition.label: aqueous solvent with 0.5% Poloxamer 188, without Captisol, aqueous with cosolvent or surfactant or cyclodextrin, Captisol 0%, 0.5% Poloxamer 188
quantity: solubility (µg/mL)
Give your result in µg/mL as a bare value.

Using the record for `C=C(C)[C@@H]1CCC(C)=C[C@H]1c1c(O)cc(CCCCC)cc1O` , report its solubility.
133

* * *

# assay.details: solubility of CBD in water and other aqueous solvents with Captisol (SAE-CD) and/or added polymers, surfactants, pH
# Assay type: physicochemical
# condition.label: aqueous solvent, aqueous with cosolvent or surfactant or cyclodextrin, Captisol 0%, 10% CrEL
quantity: solubility (mg/mL)
Your answer should be a plain number; it is taken to be in mg/mL.

solubility lookup needed for C=C(C)[C@@H]1CCC(C)=C[C@H]1c1c(O)cc(CCCCC)cc1O [CBD, cannabidiol] , thanks.
47.9

* * *

# assay.details: solubility of CBD in water and other aqueous solvents with Captisol (SAE-CD) and/or added polymers, surfactants, pH
# Type: physicochemical
# condition.label: aqueous solvent, aqueous with cosolvent or surfactant or cyclodextrin, Captisol 0%, 5% CrEL
# Text: In some embodiments the addition of water soluble polymers and/or surfactants increases the solubility of the CBD/Captisol mixture. Therefore, in some embodiments the formulations may include the addition of these or other ingredients as solubility enhancers.
quantity: solubility (mg/mL)
Please reply with the bare figure in mg/mL and do not write the unit itself.

Field request: solubility | item: `C=C(C)[C@@H]1CCC(C)=C[C@H]1c1c(O)cc(CCCCC)cc1O`
21.9

* * *

# assay.details: solubility of CBD in water and other aqueous solvents with Captisol (SAE-CD) and/or added polymers, surfactants, pH
# Assay type: physicochemical
# condition.label: aqueous solvent, aqueous with cosolvent or surfactant or cyclodextrin, Captisol 20%, 0.5% PVP
# Text: In some embodiments the addition of water soluble polymers and/or surfactants increases the solubility of the CBD/Captisol mixture. Therefore, in some embodiments the formulations may include the addition of these or other ingredients as solubility enhancers.
quantity: solubility

Using the record for C=C(C)[C@@H]1CCC(C)=C[C@H]1c1c(O)cc(CCCCC)cc1O [CBD, cannabidiol] , report its solubility.
1180 µg/mL

* * *

# assay.details: solubility of CBD in water and other aqueous solvents with Captisol (SAE-CD) and/or added polymers, surfactants, pH
# Type: physicochemical
# condition.label: aqueous solvent, aqueous with cosolvent or surfactant or cyclodextrin, Captisol 20%, 0.5% HPMC
quantity: solubility (µg/mL)
# unit: µg/mL | format: bare number

Given `C=C(C)[C@@H]1CCC(C)=C[C@H]1c1c(O)cc(CCCCC)cc1O` , state its recorded solubility.
1320

* * *

# assay.details: solubility of CBD in water and other aqueous solvents with Captisol (SAE-CD) and/or added polymers, surfactants, pH
# Format: physicochemical
# condition.label: aqueous solvent, aqueous with cosolvent or surfactant or cyclodextrin, Captisol 20%, additive None
quantity: solubility (µg/mL)
Please respond with the number in µg/mL and leave the unit unwritten.

For the molecule `C=C(C)[C@@H]1CCC(C)=C[C@H]1c1c(O)cc(CCCCC)cc1O` , what solubility is on record?
850

* * *

# assay.details: solubility of CBD in water and other aqueous solvents with Captisol (SAE-CD) and/or added polymers, surfactants, pH
# Format: physicochemical
# condition.label: aqueous solvent, aqueous with cosolvent or surfactant or cyclodextrin, Captisol 40%, 0.5% HPMC
quantity: solubility
In your response, put the unit directly after the numeric value.

I am curious: what solubility value has been reported for C=C(C)[C@@H]1CCC(C)=C[C@H]1c1c(O)cc(CCCCC)cc1O [CBD, cannabidiol] ?
2680 µg/mL

* * *

# assay.details: solubility of CBD in water and other aqueous solvents with Captisol (SAE-CD) and/or added polymers, surfactants, pH
# Type: physicochemical
# condition.label: aqueous solvent, aqueous with cosolvent or surfactant or cyclodextrin, Captisol 20%, 2% PVP
quantity: solubility (µg/mL)
Provide the reading as a plain figure in µg/mL.

Query (compound): `C=C(C)[C@@H]1CCC(C)=C[C@H]1c1c(O)cc(CCCCC)cc1O` ; field requested: solubility
840

* * *

# assay.details: solubility of CBD in water and other aqueous solvents with Captisol (SAE-CD) and/or added polymers, surfactants, pH
# Format: physicochemical
# condition.label: aqueous solvent, aqueous with cosolvent or surfactant or cyclodextrin, Captisol 40%, 1% PVP
quantity: solubility (µg/mL)
Note: unit µg/mL is implicit; provide only the numeric part.

What solubility value was documented for this molecule, C=C(C)[C@@H]1CCC(C)=C[C@H]1c1c(O)cc(CCCCC)cc1O [CBD, cannabidiol] ?
3280

* * *

# assay.details: solubility of CBD in water and other aqueous solvents with Captisol (SAE-CD) and/or added polymers, surfactants, pH
# Assay type: physicochemical
# condition.label: aqueous solvent, aqueous with cosolvent or surfactant or cyclodextrin, Captisol 20%, 2% CMC
quantity: solubility (µg/mL)
// return numeric value only (unit: µg/mL, not printed)

Reported solubility, compound `C=C(C)[C@@H]1CCC(C)=C[C@H]1c1c(O)cc(CCCCC)cc1O` : ____
365

* * *

# assay.details: solubility of CBD in water and other aqueous solvents with Captisol (SAE-CD) and/or added polymers, surfactants, pH
# Assay type: physicochemical
# condition.label: aqueous solvent, aqueous with cosolvent or surfactant or cyclodextrin, Captisol 20%, 1% PVP
quantity: solubility (µg/mL)
Report the value in µg/mL with no unit label.

May I ask what solubility has been recorded for `C=C(C)[C@@H]1CCC(C)=C[C@H]1c1c(O)cc(CCCCC)cc1O` ?
1520

* * *

# assay.details: solubility of CBD in water and other aqueous solvents with Captisol (SAE-CD) and/or added polymers, surfactants, pH
# Type: physicochemical
# condition.label: aqueous solvent, pH 7.4, aqueous with cosolvent or surfactant or cyclodextrin, Captisol 20%, PBS (pH = 7.4)
quantity: solubility (µg/mL)
Dear colleague, please return just the value in µg/mL, with no unit written.

Give its solubility value. Item: C=C(C)[C@@H]1CCC(C)=C[C@H]1c1c(O)cc(CCCCC)cc1O [CBD, cannabidiol]
720

* * *

# assay.details: solubility of CBD in water and other aqueous solvents with Captisol (SAE-CD) and/or added polymers, surfactants, pH
# Assay type: physicochemical
# condition.label: aqueous solvent, aqueous with cosolvent or surfactant or cyclodextrin, Captisol 20%, 10% CrEL
quantity: solubility
I'd appreciate it if you included the unit after the number.

I'd like to know its solubility. The compound in question is C=C(C)[C@@H]1CCC(C)=C[C@H]1c1c(O)cc(CCCCC)cc1O [CBD, cannabidiol]
46.7 mg/mL

* * *

# assay.details: solubility of CBD in water and other aqueous solvents with Captisol (SAE-CD) and/or added polymers, surfactants, pH
# Assay type: physicochemical
# condition.label: aqueous solvent, pH 4, aqueous with cosolvent or surfactant or cyclodextrin, Captisol 20%, pH 4
quantity: solubility (µg/mL)
Quick note: give the figure in µg/mL, leave out the unit.

Any idea what its solubility is? The molecule is `C=C(C)[C@@H]1CCC(C)=C[C@H]1c1c(O)cc(CCCCC)cc1O`
650

* * *

# assay.details: solubility of CBD in water and other aqueous solvents with Captisol (SAE-CD) and/or added polymers, surfactants, pH
# Format: physicochemical
# condition.label: aqueous solvent, aqueous with cosolvent or surfactant or cyclodextrin, Captisol 20%, 1% HPMC
quantity: solubility (µg/mL)
Express the result in µg/mL but write the number alone.

Endpoint output: solubility of `C=C(C)[C@@H]1CCC(C)=C[C@H]1c1c(O)cc(CCCCC)cc1O` . Value?
1550

* * *

# assay.details: solubility of CBD in water and other aqueous solvents with Captisol (SAE-CD) and/or added polymers, surfactants, pH
# Format: physicochemical
# condition.label: aqueous solvent, aqueous with cosolvent or surfactant or cyclodextrin, Captisol 40%, additive None
quantity: solubility (µg/mL)
Note: unit µg/mL is implicit; provide only the numeric part.

May I ask what solubility has been recorded for `C=C(C)[C@@H]1CCC(C)=C[C@H]1c1c(O)cc(CCCCC)cc1O` ?
2800

* * *

# assay.details: solubility of CBD in water and other aqueous solvents with Captisol (SAE-CD) and/or added polymers, surfactants, pH
# Type: physicochemical
# condition.label: aqueous solvent, aqueous with cosolvent or surfactant or cyclodextrin, Captisol 20%, 1% CrEL
quantity: solubility (µg/mL)
# unit: µg/mL | format: bare number

I have this compound here, `C=C(C)[C@@H]1CCC(C)=C[C@H]1c1c(O)cc(CCCCC)cc1O` , and I need its recorded solubility.
4280

* * *

# assay.details: solubility of CBD in water and other aqueous solvents with Captisol (SAE-CD) and/or added polymers, surfactants, pH
# Type: physicochemical
# condition.label: aqueous solvent, aqueous with cosolvent or surfactant or cyclodextrin, Captisol 40%, 1% CMC
quantity: solubility (µg/mL)
Please reply with the bare figure in µg/mL and do not write the unit itself.

Item under review: C=C(C)[C@@H]1CCC(C)=C[C@H]1c1c(O)cc(CCCCC)cc1O [CBD, cannabidiol] . Reported solubility?
2640
